# experimental.system: Na^+,K^+ -ATPase (Homo sapiens)
# Construct: Na^+,K^+ -ATPase receptor purified according to Jorghensen; from tissue
# assay.procedure: displacement of the specific 3H-ouabain binding from the purified Na+,K+-ATPase receptor
Counter-ions that a name gives are not always drawn.
Please provide measured IC50 for the entries that follow.
Give a bare numeral; the unit µM is implied.

I have this molecule here, Cc1ccc([C@H]2CC[C@]3(C)[C@@H](/C=N/OCCN)CC[C@]3(O)C2)cc1 [I-bg, oxalate] , and I need its recorded IC50.
3.98

And for CN(C)CCONC[C@H]1CC[C@]2(O)C[C@@H](c3ccccc3)CC[C@]12C [I-df, oxalate] ?
6.31

And for CN(C)CCONC[C@H]1CC[C@]2(O)C[C@@H](c3cccc(O)c3)CC[C@]12C [I-di, oxalate] ?
7.94

* * *

# experimental.system: Na^+,K^+ -ATPase (Homo sapiens)
# Construct: Na^+,K^+ -ATPase receptor purified according to Jorghensen; from tissue
# assay.procedure: inhibition of the activity of the purified Na+,K+-ATPase (% hydrolysis of 32P-ATP)
# Type: biochemical
# test.conditions: 32P-ATP hydrolysis, purified Na+,K+-ATPase; read-out: Inhibitory Activity log IC50 (converted)
Please provide measured IC50 for the entries that follow.
Give a bare numeral; the unit µM is implied.

I have this compound here, CN(C)CCO/N=C/[C@H]1CC[C@]2(O)C/C(=C/CCO)CC[C@]12C , and I need its recorded IC50.
63.1

And for CN(C)CCO/N=C/[C@H]1CC[C@]2(O)C[C@@H](c3ccc(O)cc3)CC[C@]12C ?
39.8

And for C[C@]12CC[C@H](c3ccc(CO)cc3)C[C@@]1(O)CC[C@@H]2/C=N/OCCN ?
25.1

And for CN(C)CCO/N=C/[C@H]1CC[C@]2(O)C[C@@H](c3cccc(O)c3)CC[C@]12C ?
50.1

And for CN(C)CCO/N=C/[C@H]1CC[C@]2(O)C/C(=C\CCO)CC[C@]12C ?
63.1
